The reported measurements were obtained from PubChem BioAssay (EPA / NIEHS).

- PROTOCOL_DESCRIPTION: ATG_M_19_TRANS: Attagene TRANS-FACTORIAL HepG2 Assay for M19 Transcription Factor (Internal Marker) (AID 2282974)
- APPLIED_CONDITIONS: HepG2 Attagene TRANS-FACTORIAL M19 internal marker reporter
Records with an inconclusive call do not appear. The source made the active and inactive calls. The calls were made as follows: active = hit-call score of the fitted dose curve at least 0.9, where 1 is the maximum; inconclusive = response in the unintended direction; inactive = score below 0.9.
MEASUREMENT_LABEL: outcome

Reference set (5 entries):
CCCCCCC1CCOC1=O (configuration not stated) = inactive
CCOP(=O)(OCC)Oc1ccc([N+](=O)[O-])cc1 = inactive
C[C@]12CCC(=O)C(O)=C1CC[C@@H]1[C@@H]2CC[C@]2(C)C(=O)CC[C@@H]12 = inactive
CCCOC(=O)c1ccccc1C(=O)OCCC = inactive
Cl/C=C\CCl = inactive

Input: Can you look up the measured outcome of O=S(=O)(O)OOS(=O)(=O)O for me?
Output: inactive

Input: Can you look up the measured outcome of COC(=O)COc1ccc(Cl)cc1Cl for me?
Output: inactive
